- Test target: C-C chemokine receptor type 2 (Homo sapiens)
- Sequence (P41597 whole entry): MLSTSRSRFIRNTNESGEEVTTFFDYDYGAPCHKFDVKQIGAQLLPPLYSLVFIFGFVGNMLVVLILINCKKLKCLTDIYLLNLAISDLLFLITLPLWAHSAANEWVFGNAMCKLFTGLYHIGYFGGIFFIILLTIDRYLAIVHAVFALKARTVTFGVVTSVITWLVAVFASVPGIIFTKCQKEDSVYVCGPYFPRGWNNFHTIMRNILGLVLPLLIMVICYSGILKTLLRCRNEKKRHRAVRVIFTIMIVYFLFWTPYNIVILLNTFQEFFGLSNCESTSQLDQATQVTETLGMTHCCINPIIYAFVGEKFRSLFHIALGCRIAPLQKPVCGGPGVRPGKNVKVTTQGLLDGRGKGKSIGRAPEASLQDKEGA
- Assay notes: Displacement of [125]MCP1 from CCR2 in human PBMCs
Measured IC50 determines class: range A: < 100 nM; range B: ≥ 100 nM and < 400 nM; range C: ≥ 400 nM

Class (by measured IC50) for CCc1ccc(CNC[C@H](NC(=O)CNC(=O)c2cccc(C(F)(F)F)c2)C(=O)NC(C)(C)C)c(C)c1
range A

More entries:
Category lookup for the molecule Cc1ccc(CNC[C@H](NC(=O)CNC(=O)c2cccc(C(F)(F)F)c2)C(=O)NC(C)(C)C)cc1N
range B

Which bin should I file COc1ccc(CNC[C@H](NC(=O)CNC(=O)c2cccc(C(F)(F)F)c2)C(=O)NC(C)(C)C)cc1 under?
range C

# bin lookup: classify Cc1ccc(CNC[C@H](NC(=O)CNC(=O)c2cccc(C(F)(F)F)c2)C(=O)NC(C)C)c(C)c1 by its IC50
range B
